# Tested on: human Factor 7 mRNA
# Method Description: Dose-dependent antisense inhibition of human Factor 7 in HepB3 cells, transfection with lipofectin
# Format: cell-based
# Measurement Setup: Example 2; HepB3, lipofectin, 100.0 nM, ~16 h
In the oligonucleotide strings, read from the 5' end, every base follows the letter of its sugar. An asterisk marks phosphorothioate; unmarked linkages are phosphodiester. Other units and linkages are bracketed, terminal groups are in braces. A string of capitals states the bases alone. e = 2'-O-(2-methoxyethyl) (MOE); [5mC] = 5-methylcytosine; d = 2'-deoxy (DNA)
Endpoint Name: percent inhibition of Factor 7 mRNA, 100.0 nM (%)

INSERT INTO measurements (substance, endpoint_unit, readout_number) VALUES
  ('407910 (antisense eA*eG*eT*e[5mC]*e[5mC]*dT*dT*dG*d[5mC]*dT*dG*d[5mC]*d[5mC]*dA*dT*e[5mC]*e[5mC]*eG*eA*eG) [compound 407910]', '%', 89),
  ('407641 (antisense e[5mC]*e[5mC]*eT*eG*eA*dG*dG*d[5mC]*d[5mC]*dA*dG*d[5mC]*dA*dG*dA*eT*e[5mC]*eA*e[5mC]*eG) [compound 407641]', '%', 89),
  ('407935 (antisense eA*eT*eG*e[5mC]*eA*dT*dG*dG*dT*dG*dA*dT*dG*d[5mC]*dT*eT*e[5mC]*eT*eG*eA) [compound 407935]', '%', 89),
  ('407594 (antisense e[5mC]*e[5mC]*eT*eG*e[5mC]*dA*dG*d[5mC]*d[5mC]*dA*dG*dG*d[5mC]*dA*dG*e[5mC]*e[5mC]*e[5mC]*eT*eG) [compound 407594]', '%', 80),
  ('407939 (antisense eT*eG*e[5mC]*eA*eG*d[5mC]*d[5mC]*d[5mC]*dG*dG*d[5mC]*dA*d[5mC]*d[5mC]*d[5mC]*eA*eG*e[5mC]*eG*eA) [compound 407939]', '%', 92),
  ('407900 (antisense e[5mC]*e[5mC]*e[5mC]*e[5mC]*eA*d[5mC]*dA*dA*dT*dT*d[5mC]*dG*dG*d[5mC]*d[5mC]*eT*eT*eG*eG*eG) [compound 407900]', '%', 91),
  ('407606 (antisense e[5mC]*eT*eG*eG*eT*d[5mC]*d[5mC]*dT*dT*dG*d[5mC]*dA*dG*dG*dA*eG*e[5mC]*e[5mC]*e[5mC]*e[5mC]) [compound 407606]', '%', 84),
  ('407643 (antisense e[5mC]*eA*e[5mC]*eA*e[5mC]*dA*dT*dG*dG*dA*dG*dT*d[5mC]*dA*dG*e[5mC]*eA*eT*e[5mC]*eG) [compound 407643]', '%', 95),
  ('407936 (antisense eG*eG*e[5mC]*eA*eT*dT*d[5mC]*dG*d[5mC]*d[5mC]*dA*d[5mC]*d[5mC]*dA*dT*eG*e[5mC]*eA*eT*eG) [compound 407936]', '%', 90);

----------
Documented percent inhibition of Factor 7 mRNA, relative to untreated control cells across a set of substances
# Test system: human Factor 7 mRNA
# Method Description: Dose-dependent antisense inhibition of human Factor 7 in HepB3 cells, transfection with electroporation
# Type: cell-based
# Measurement Setup: 3.125 μM, 16 hours (Example 7, Table 15)
In the oligonucleotide strings, read from the 5' end, every base follows the letter of its sugar. An asterisk marks phosphorothioate; unmarked linkages are phosphodiester. Other units and linkages are bracketed, terminal groups are in braces. A string of capitals states the bases alone. e = 2'-O-(2-methoxyethyl) (MOE); [5mC] = 5-methylcytosine; d = 2'-deoxy (DNA)
Endpoint Name: percent inhibition of Factor 7 mRNA, relative to untreated control cells (%)

INSERT INTO assay_data (substance, readout_number) VALUES
  ('422252 (antisense e[5mC]*eG*d[5mC]*d[5mC]*dG*dG*d[5mC]*dT*d[5mC]*dT*dG*d[5mC]*dT*d[5mC]*dA*eT*e[5mC]*e[5mC]*e[5mC]*e[5mC]) [compound 422252]', 23),
  ('422217 (antisense eG*eA*eG*dT*dT*d[5mC]*dT*dG*d[5mC]*dA*dG*dG*dA*dG*d[5mC]*dG*dG*e[5mC]*e[5mC]*eT) [compound 422217]', 15),
  ('422142 (antisense eG*eA*eG*eT*eT*d[5mC]*dT*dG*d[5mC]*dA*dG*dG*dA*dG*d[5mC]*eG*eG*e[5mC]*e[5mC]*eT) [compound 422142]', 26),
  ('422086 (antisense eT*eG*e[5mC]*eA*eT*dG*dG*dT*dG*dA*dT*dG*d[5mC]*dT*dT*e[5mC]*eT*eG*eA*eA) [compound 422086]', 20),
  ('422150 (antisense eG*e[5mC]*eA*dT*dG*dG*dT*dG*dA*dT*dG*d[5mC]*dT*dT*d[5mC]*dT*dG*eA*eA*eT) [compound 422150]', 17),
  ('422229 (antisense eA*eT*dG*d[5mC]*dA*dT*dG*dG*dT*dG*dA*dT*dG*d[5mC]*dT*eT*e[5mC]*eT*eG*eA) [compound 422229]', 21),
  ('422152 (antisense eA*eT*eG*d[5mC]*dA*dT*dG*dG*dT*dG*dA*dT*dG*d[5mC]*dT*dT*d[5mC]*eT*eG*eA) [compound 422152]', 14),
  ('422130 (antisense eG*e[5mC]*e[5mC]*eT*eG*dA*dG*dG*d[5mC]*d[5mC]*dA*dG*d[5mC]*dA*dG*eA*eT*e[5mC]*eA*e[5mC]) [compound 422130]', 28),
  ('422177 (antisense e[5mC]*e[5mC]*e[5mC]*dG*d[5mC]*d[5mC]*dG*dG*d[5mC]*dT*d[5mC]*dT*dG*d[5mC]*dT*d[5mC]*dA*eT*e[5mC]*e[5mC]) [compound 422177]', 3),
  ('407935 (antisense eA*eT*eG*e[5mC]*eA*dT*dG*dG*dT*dG*dA*dT*dG*d[5mC]*dT*eT*e[5mC]*eT*eG*eA) [compound 407935]', 37),
  ('422087 (antisense e[5mC]*eA*eT*eG*e[5mC]*dA*dT*dG*dG*dT*dG*dA*dT*dG*d[5mC]*eT*eT*e[5mC]*eT*eG) [compound 422087]', 22);

----------
Documented % Inhibition of human Factor 7 mRNA levels across a set of substances
# System: human Factor 7 mRNA
# Method Description: Antisense inhibition of human Factor 7 mRNA in HepB3 cells, lipofectin, 50 nM, real-time RT-PCR
# Format: cell-based
# Measurement Setup: HepB3 cells; gapmers targeted to nucleobases 15188 to 15211 of SEQ ID NO: 1 (Table 13)
# Description: Antisense oligonucleotides targeted to a Factor 7 nucleic acid were tested for their effects on Factor 7 mRNA in vitro. […] After a treatment period of approximately 24 hours, RNA was isolated from the cells and Factor 7 mRNA levels were measured by real-time RT-PCR, as described herein. Factor 7 mRNA levels were adjusted according to total RNA content as measured by RIBOGREEN®. […]
In the oligonucleotide strings, read from the 5' end, every base follows the letter of its sugar. An asterisk marks phosphorothioate; unmarked linkages are phosphodiester. Other units and linkages are bracketed, terminal groups are in braces. A string of capitals states the bases alone. e = 2'-O-(2-methoxyethyl) (MOE); [5mC] = 5-methylcytosine; d = 2'-deoxy (DNA)
Endpoint Name: % Inhibition of human Factor 7 mRNA levels (%)

INSERT INTO measurements (substance, readout_number) VALUES
  ('422228 (antisense eT*eG*d[5mC]*dA*dT*dG*dG*dT*dG*dA*dT*dG*d[5mC]*dT*dT*e[5mC]*eT*eG*eA*eA) [compound 422228]', 73),
  ('422087 (antisense e[5mC]*eA*eT*eG*e[5mC]*dA*dT*dG*dG*dT*dG*dA*dT*dG*d[5mC]*eT*eT*e[5mC]*eT*eG) [compound 422087]', 83),
  ('422085 (antisense eG*e[5mC]*eA*eT*eG*dG*dT*dG*dA*dT*dG*d[5mC]*dT*dT*d[5mC]*eT*eG*eA*eA*eT) [compound 422085]', 70);

----------
# Tested on: human Factor 7 mRNA
# Method Description: Dose-dependent antisense inhibition of human Factor 7 in HepB3 cells, transfection with lipofectin
# Type: cell-based
# Measurement Setup: Example 2; HepB3, lipofectin, 12.5 nM, ~16 h
In the oligonucleotide strings, read from the 5' end, every base follows the letter of its sugar. An asterisk marks phosphorothioate; unmarked linkages are phosphodiester. Other units and linkages are bracketed, terminal groups are in braces. A string of capitals states the bases alone. e = 2'-O-(2-methoxyethyl) (MOE); [5mC] = 5-methylcytosine; d = 2'-deoxy (DNA)
Documented percent inhibition of Factor 7 mRNA, 12.5 nM across a set of substances
Endpoint Name: percent inhibition of Factor 7 mRNA, 12.5 nM (%)

INSERT INTO results (substance, readout_number) VALUES
  ('407935 (antisense eA*eT*eG*e[5mC]*eA*dT*dG*dG*dT*dG*dA*dT*dG*d[5mC]*dT*eT*e[5mC]*eT*eG*eA) [compound 407935]', 78),
  ('407936 (antisense eG*eG*e[5mC]*eA*eT*dT*d[5mC]*dG*d[5mC]*d[5mC]*dA*d[5mC]*d[5mC]*dA*dT*eG*e[5mC]*eA*eT*eG) [compound 407936]', 79),
  ('407939 (antisense eT*eG*e[5mC]*eA*eG*d[5mC]*d[5mC]*d[5mC]*dG*dG*d[5mC]*dA*d[5mC]*d[5mC]*d[5mC]*eA*eG*e[5mC]*eG*eA) [compound 407939]', 83),
  ('407606 (antisense e[5mC]*eT*eG*eG*eT*d[5mC]*d[5mC]*dT*dT*dG*d[5mC]*dA*dG*dG*dA*eG*e[5mC]*e[5mC]*e[5mC]*e[5mC]) [compound 407606]', 49),
  ('407910 (antisense eA*eG*eT*e[5mC]*e[5mC]*dT*dT*dG*d[5mC]*dT*dG*d[5mC]*d[5mC]*dA*dT*e[5mC]*e[5mC]*eG*eA*eG) [compound 407910]', 69);
